Target: T1, FOXA2-DBD (human, UniProt Q9Y261-2 163-264)
T1 sequence: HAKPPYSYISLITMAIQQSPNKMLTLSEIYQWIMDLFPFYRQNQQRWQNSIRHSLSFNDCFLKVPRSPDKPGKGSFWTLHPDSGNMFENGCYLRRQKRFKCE
Experiment: ITC
readout-type: Kd
Hi, when you answer, please include the unit after the number. Thanks!

GTACACA site (ITC) (dsDNA) DNA 1: TGCAAAATGTACACAAGACT DNA 2: AGTCTTGTGTACATTTTGCA: 0.99 µM

Next, consider the following binder.
Req: Please report the recorded Kd for ACAAATA site (DNA4, ITC) (dsDNA) DNA 1: TGCAAAATACAAATAAGACT DNA 2: AGTCTTATTTGTATTTTGCA .
Resp: 7.54 µM

Value source: paper PMC6468292
